Hey, just so you know, these numbers are from patent US10053453B2.

Consider the following compounds and their measured IC50 readings.
- Target Or System: Human BACE2 (Homo sapiens)
- Construct: the soluble part of the human β-Secretase2 (AA1-AA473) was cloned using BACE2(1-473)-(AVT)-Fc-pDEST12.2 mammalian expression vector; AVT linker (C); made in house
- Sequence (Q9Y5Z0 21-473): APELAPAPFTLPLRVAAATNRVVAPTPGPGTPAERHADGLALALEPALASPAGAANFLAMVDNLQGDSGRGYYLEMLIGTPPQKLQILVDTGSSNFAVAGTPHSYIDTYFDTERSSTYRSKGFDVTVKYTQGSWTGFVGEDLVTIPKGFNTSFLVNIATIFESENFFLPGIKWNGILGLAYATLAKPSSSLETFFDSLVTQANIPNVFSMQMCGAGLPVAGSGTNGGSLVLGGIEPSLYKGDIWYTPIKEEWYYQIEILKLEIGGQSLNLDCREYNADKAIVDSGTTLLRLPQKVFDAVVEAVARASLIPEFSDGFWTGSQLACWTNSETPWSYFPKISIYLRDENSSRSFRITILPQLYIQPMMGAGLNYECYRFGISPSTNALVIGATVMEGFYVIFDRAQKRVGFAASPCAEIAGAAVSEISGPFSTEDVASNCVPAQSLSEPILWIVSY
- Run Description: TR-FRET assay
- Assay type: biochemical
- Test Parameters: enzyme 2.7 μg/mL, substrate 100 nM, pH4.5
Only the number, expressed in nM, is required.

Example compounds with recorded IC50:
[[record]]
compound = "[2H]C1([2H])OC(N)=N[C@]12c1cc(-c3ccccn3)ccc1C[C@@]21CC[C@H](OC)[C@@H](C)C1"
target_or_system = "Human BACE2 (Homo sapiens)"
result_value = 1840

[[record]]
compound = "[2H]C1([2H])OC(N)=N[C@]12c1cc(-c3cncc(C#N)c3)ccc1C[C@@]21CC[C@H](OC)[C@@H](C)C1"
target_or_system = "Human BACE2 (Homo sapiens)"
result_value = 64

[[record]]
compound = "CC1(C2Cc3ccc(-c4cncnc4)cc3C23COC(N)=N3)CCOCC1 (stereo not shown)"
target_or_system = "Human BACE2 (Homo sapiens)"
result_value = 1790

[[record]]
compound = "[2H]C([2H])([2H])O[C@@H]1CC[C@]2(Cc3ccc(-c4cccnc4F)cc3[C@]23N=C(N)OC3([2H])[2H])C[C@H]1C"
target_or_system = "Human BACE2 (Homo sapiens)"
result_value = 895

[[record]]
compound = "[2H]C([2H])([2H])O[C@H]1CC[C@@]2(Cc3ccc(-c4cnccc4F)cc3[C@]23N=C(N)OC3([2H])[2H])C[C@@H]1C"
target_or_system = "Human BACE2 (Homo sapiens)"
result_value = 1010

[[record]]
compound = "[2H]C([2H])([2H])O[C@@H]1CC[C@]2(Cc3ccc(-c4cncc(F)c4)cc3[C@]23N=C(N)OC3([2H])[2H])C[C@H]1C"
target_or_system = "Human BACE2 (Homo sapiens)"
result_value = 207


(Q) # value lookup — system Human BACE2 (Homo sapiens), readout IC50, item [2H]C1([2H])OC(N)=N[C@]12c1cc(-c3cccc(Cl)c3)ccc1C[C@@]21CC[C@H](OC)[C@@H](C)C1
(A) 24.7

(Q) Give the reported IC50 for [2H]C1([2H])OC(N)=NC12c1cc(-c3cncc(C)c3)ccc1C[C@@]21CC[C@H](OC)[C@@H](C)C1 (stereo partly shown) (system: Human BACE2 (Homo sapiens)).
(A) 256
